Assay: recombinant UMI read abundance after kanamycin selection (control-corrected) (log10(CPM+1)); higher = more efficient recombination; extreme values may be limits of the assay; sequences stand for … in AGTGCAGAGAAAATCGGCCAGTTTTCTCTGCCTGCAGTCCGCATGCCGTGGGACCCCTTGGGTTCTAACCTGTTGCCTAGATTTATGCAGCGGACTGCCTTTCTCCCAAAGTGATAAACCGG…AGGTTGGTTTCACT; site = the 11-nt donor
Use True when the recorded recombinant UMI read abundance (log10) is no lower than 0.8; use False when it is lower.

TCCATAACATGGACCGGTTTTCCCGGTAATCCGTATTTGGG (site TCCATAACTCC) = False
AACTAGACATGGACCGGTTTTCCCGGTAATCCGTATTTGGG (site AACTAGACTCC) = False
AGGACTCCATGGACCGGTTTTCCCGGTAATCCGTATTTGAC (site AGGACTACTGT) = False
GTTACAACATGGACCGGTTTTCCCGGTAATCCGTATTTGGC (site GTTAGAACTGC) = False
CGGGAGCCATGGACCGGTTTTCCCGGTAATCCGTATTTGCT (site CGGGAGCCTAG) = False

Decide: is the reported value of recombinant UMI read abundance (log10) for ACCAAGTCATGGACCGGTTTTCCCGGTAATCCGTATTTGTG (site ACCAAGTCTCA) equal to or greater than 0.8?
True

Decide: is the reported value of recombinant UMI read abundance (log10) for GTGCTCACATGGACCGGTTTTCCCGGTAATCCGTATTTGAT (site GTGCTCACTAT) equal to or greater than 0.8?
True

Decide: is the reported value of recombinant UMI read abundance (log10) for TACCTAGCATGGACCGGTTTTCCCGGTAATCCGTATTTGAA (site TACCTAGCTTT) equal to or greater than 0.8?
False

Decide: is the reported value of recombinant UMI read abundance (log10) for CAATGCACATGGACCGGTTTTCCCGGTAATCCGTATTTGAA (site CAATGCACTTT) equal to or greater than 0.8?
True

Decide: is the reported value of recombinant UMI read abundance (log10) for GCGAAAACATGGACCGGTTTTCCCGGTAATCCGTATTTGAT (site GCGAAAACTAT) equal to or greater than 0.8?
True

----------
Assay: recombinant barcode read abundance after kanamycin selection (control-corrected) (log10(CPM+1)); higher = more efficient recombination; sequences stand for … in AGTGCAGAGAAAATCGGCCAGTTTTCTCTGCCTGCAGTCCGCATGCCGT…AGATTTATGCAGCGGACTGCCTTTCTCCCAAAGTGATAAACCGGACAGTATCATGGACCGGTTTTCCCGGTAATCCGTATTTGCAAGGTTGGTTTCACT; site = the 11-nt target
Use True when the recorded recombinant barcode read abundance (log10) is no lower than 0.2; use False when it is lower.

As a guide, the following entries are already answered.
AGGGACTCTTGGGTTCTAACCTGTTGCCG (site TGGGACACTCG) = False
CGTAAATCTTGGGTTCTAACCTGTTGCCT (site CGTAAATCTAG) = False
GTAAGTACTTGGGTTCTAACCTGTTGCTT (site GTAAGAACTAA) = False

Decide: is the reported value of recombinant barcode read abundance (log10) for CTAGACCCTTGGGTTCTAACCTGTTGCGG (site ACGCGTTCTAT) equal to or greater than 0.2?
True

----------
Here, each record is paired with measured recombinant UMI read abundance (log10) data.
Assay: recombinant UMI read abundance after kanamycin selection (control-corrected) (log10(CPM+1)); higher = more efficient recombination; extreme values may be limits of the assay; sequences stand for … in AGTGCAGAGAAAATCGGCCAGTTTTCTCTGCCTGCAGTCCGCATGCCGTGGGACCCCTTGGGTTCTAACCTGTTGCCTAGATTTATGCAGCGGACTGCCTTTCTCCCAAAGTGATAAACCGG…AGGTTGGTTTCACT; site = the 11-nt donor

Reference set (6 entries):
CAATTTCCATGGACCGGTTTTCCCGGTAATCCGTATTTGCT (site CAATTACCTAG) = 0
TCAGAGCCATGGACCGGTTTTCCCGGTAATCCGTATTTGCG (site TCAGAGGCTCG) = 0.00861
CGCCTTCCATGGACCGGTTTTCCCGGTAATCCGTATTTGGT (site CGCCTTCCTAC) = 0.0121
TCGGGCGCATGGACCGGTTTTCCCGGTAATCCGTATTTGTC (site TCGGGCGCTGA) = 2.19
GATTACCCATGGACCGGTTTTCCCGGTAATCCGTATTTGAG (site GATTACCCTCT) = 0.03
CCTGATACATGGACCGGTTTTCCCGGTAATCCGTATTTGGC (site CCTCATACTGC) = 0

recombinant UMI read abundance (log10) for TGCGGTTCATGGACCGGTTTTCCCGGTAATCCGTATTTGAA (site TGCGGTTCTTT) is 0.557

recombinant UMI read abundance (log10) for CCTAGTGCATGGACCGGTTTTCCCGGTAATCCGTATTTGGT (site GCTAGTGCTAC) is 0.0365

recombinant UMI read abundance (log10) for CATGGAACATGGACCGGTTTTCCCGGTAATCCGTATTTGGA (site CATGGAACTTC) is 1.99

----------
Assay: recombinant barcode read abundance after kanamycin selection (control-corrected) (log10(CPM+1)); higher = more efficient recombination; sequences stand for … in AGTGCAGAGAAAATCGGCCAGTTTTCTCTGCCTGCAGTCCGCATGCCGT…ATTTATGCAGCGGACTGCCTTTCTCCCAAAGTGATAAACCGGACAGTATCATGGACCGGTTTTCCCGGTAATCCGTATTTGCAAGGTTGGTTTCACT; site = the 11-nt target
Use T when the recorded recombinant barcode read abundance (log10) is no lower than 0.07; use F when it is lower.

As a guide, the following entries are already answered.
TAGAGGGTTTGGGTTCTAACCTGTTGCGGAA [TAGAGGGCTCC_LTGcore_TT_RTGcore_TT] (site TAGAGGGCTCC) (LTG core: TT, RTG core: TT) = T
TAGAGGGTCTGGGTTCTAACCTGTTGCGGGA [TAGAGGGCTCC_LTGcore_TC_RTGcore_TC] (site TAGAGGGCTCC) (LTG core: TC, RTG core: TC) = T
GGGCGGAGCTGGGTTCTAACCTGTTGCGGAG [GGGCGGACTCC_LTGcore_GC_RTGcore_CT] (site GGGCGGACTCC) (LTG core: GC, RTG core: CT) = T
GGACACCGATGGGTTCTAACCTGTTGCCTTC [GGACACCCTAG_LTGcore_GA_RTGcore_GA] (site GGACACCCTAG) (LTG core: GA, RTG core: GA) = F
GGCTCCCTCTGGGTTCTAACCTGTTGCGGGA [GGCTCCCCTCC_LTGcore_TC_RTGcore_TC] (site GGCTCCCCTCC) (LTG core: TC, RTG core: TC) = T

Decide: is the reported value of recombinant barcode read abundance (log10) for AGGAGGTCTTGGGTTCTAACCTGTTGCCTAC [AGGAGGTCTAG_LTGcore_CT_RTGcore_GT] (site AGGAGGTCTAG) (LTG core: CT, RTG core: GT) equal to or greater than 0.07?
T

----------
Assay: recombinant UMI read abundance after kanamycin selection (control-corrected) (log10(CPM+1)); higher = more efficient recombination; extreme values may be limits of the assay; sequences stand for … in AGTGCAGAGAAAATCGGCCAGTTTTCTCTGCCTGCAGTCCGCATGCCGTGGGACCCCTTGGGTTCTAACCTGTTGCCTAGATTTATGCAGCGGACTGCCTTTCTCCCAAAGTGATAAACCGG…AGGTTGGTTTCACT; site = the 11-nt donor
Use 1.0 when the recorded recombinant UMI read abundance (log10) is no lower than 0.9; use 0.0 when it is lower.

Decide: is the reported value of recombinant UMI read abundance (log10) for TACAAACCATGGACCGGTTTTCCCGGTAATCCGTATTTGGT (site GACAAACCTAC) equal to or greater than 0.9?
0.0

Decide: is the reported value of recombinant UMI read abundance (log10) for GATTATCCATGGACCGGTTTTCCCGGTAATCCGTATTTGCT (site GATTATCCTAG) equal to or greater than 0.9?
0.0

Decide: is the reported value of recombinant UMI read abundance (log10) for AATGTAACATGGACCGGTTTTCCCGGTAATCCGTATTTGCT (site AATGTCACTAG) equal to or greater than 0.9?
0.0

Decide: is the reported value of recombinant UMI read abundance (log10) for ATAAGGCCATGGACCGGTTTTCCCGGTAATCCGTATTTGGC (site ATAAGGCCTGT) equal to or greater than 0.9?
0.0

Decide: is the reported value of recombinant UMI read abundance (log10) for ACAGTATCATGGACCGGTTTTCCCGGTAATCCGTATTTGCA (site AAAGTATCTTG) equal to or greater than 0.9?
1.0

Decide: is the reported value of recombinant UMI read abundance (log10) for ATATTCACATGGACCGGTTTTCCCGGTAATCCGTATTTGTT (site ATATTCACTAA) equal to or greater than 0.9?
1.0

Decide: is the reported value of recombinant UMI read abundance (log10) for ACACATTCATGGACCGGTTTTCCCGGTAATCCGTATTTGAC (site ACACATGCTGT) equal to or greater than 0.9?
0.0
